Provenance of the data: patent US20260258115A1

biological target: T1, RSV postfusion F (postF), subtype A (respiratory syncytial virus subtype A, UniProt P03420 26-513); assay: BLI
T1 construct: also called Postfusion subtype A; F deltaFP
MEASURED QUANTITY: binding result

INSERT INTO measurements (binder, measured_quantity, recorded_measurement) VALUES
  ('ADI-25532 (antibody, V domains shown, full-length IgG) VH: QVQLVQSGGGLVKPGGSLRLSCAASGFTFSSYSMNWVRQAPGKGLEWVSSISSSSSYIYYADSVKGRFTISRDNAKNSLYLQMNSLRAEDTAVYYCARGSSSSWYYFDYWGQGTLVTVSS VL: QSVVTQPPSVSGAPGQRVTISCTGSSSNIGAGYDVHWYQQLPGTAPKLLIYGNSNRPSGVPDRFSGSKSGTSASLAITGLQAEDEADYYCQSYDSSLSYVFGTGTKVTVL', 'binding result', 'no binding'),
  ('ADI-19501 (antibody, V domains shown, full-length IgG) VH: QVQLVQSGAEVKKPGASVKVSCKASGYAFTNYGVSWVRQAPGQGLEWMGWISVYNGNTNYAQKLQGRVTMTTDTSTSTAYMELRSLRSDDTALYYCARDPPSEGAAGLFDYWGQGTLVTISS VL: DIVMTQSPLSLPVTLGQPASFSCRSSQSLVYSDGNTYLSWFQQRPGQSPRRLIYKVSNRDSGVPDRFSGSGSGTDFTLKISRVEAEDVGVYYCMQGTHWPCTFGQGTKVEIK', 'binding result', 'no binding'),
  ('ADI-24823 (antibody, V domains shown, full-length IgG) VH: EVQLLESGGGLVKPGGSLRLSCAASGFTFSSYSMNWVRQAPGKGLEWVSSISSSSSYIYYADSVKGRFTISRDNAKNSLYLQMNSLRAEDTAVYYCAREGDYYGSGRPFDYWGQGTLVTVSS VL: QSVVTQPPSVSGAPGQRVTISCTGSSSNIGAGYDVHWYQQLPGTAPKLLIYGNSNRPSGVPDRFSGSKSGTSASLAITGLQAEDEADYYCQSYDSSLSVVFGGGTKLTVL', 'binding result', 'no binding');
